# Tested on: PC-3
# Protocol Details: NCI tumour cell line growth inhibition, 48 h
Calls of active or inactive are those of the source. No stated cut-off is given here; in the data, active = GI50 up to about 1.1 µM and inactive = higher.
Outcome codes: active, inactive

Compound | System Under Test | Category
C/C(=N\NC(=O)Nc1ccccc1Cl)c1ccc(O)cc1 | PC-3 | inactive
Cc1c(C)c2c(c(N)c1C#N)C(=O)N(NC(=O)c1ccccc1)C2=O | PC-3 | inactive
N=c1nc(N)c2cc3c(N)nc(=N)c3cc12 | PC-3 | inactive
CC(=O)O[C@H]1C#C/C=C\C#CC[C@@H]2C(=O)N[C@@H]12 | PC-3 | inactive
Cn1c(=O)c2c(nc(NCCNc3nc4c(c(=O)n(C)c(=O)n4C)n3C)n2C)n(C)c1=O | PC-3 | inactive
O=C(N/C(=C\NC1=NCCS1)C(=O)N1CSC[C@@H]1C(=O)O)c1ccccc1 | PC-3 | inactive
O=[N+]([O-])C(=C(Nc1ccccc1)Nc1ccccc1)C(Cl)=C(Cl)Cl | PC-3 | inactive
CCOC(=O)CCN1C(=O)c2c(NC(=O)C(=O)O)cccc2S1(=O)=O | PC-3 | inactive
C=CCSC1=N/C(=C\c2ccc(Cl)cc2)C(=O)N1CC=C | PC-3 | inactive
O=C1NC(=O)[C@H]2C3C=CC([C@@H]12)[C@@H]1C(=O)NC(=O)[C@H]31 | PC-3 | inactive
O=P(O)(O)C(N=C(Nc1ccccc1)Nc1ccccc1)P(=O)(O)O | PC-3 | inactive
CNc1ccc(C(=O)CC(O)CCC(C)C2OC(=O)CC(O)CC(=O)CC(O)CC(O)CC(O)CC(O)CC3(O)CC(O)C(C(=O)N4CCOCC4)C(CC(OC4OC(C)C(O)C(N)C4O)\C=C/C=C\C=C/C=C/C=C/C=C\C=C/C2C)O3)cc1 (centres undefined) | PC-3 | active
CCOc1ccc(N/C(Cl)=C(Cl)\C(=C(\Nc2ccc(OCC)cc2)n2nnc3ccccc32)[N+](=O)[O-])cc1 | PC-3 | inactive
CCN(CC)c1ccc2cc(-c3csc(C)n3)c(=O)oc2c1 | PC-3 | inactive
C=C1CC23CCC4C(C)(C(=O)O)CCCC4(C)C2CCC1C3 (centres undefined) | PC-3 | inactive
CC(=O)Nc1ccc2c(c1)C(=O)c1cccc(F)c1-2 | PC-3 | inactive
c1ccc(C2(c3cc4ccccc4[nH]3)OCCO2)nc1 | PC-3 | inactive
COc1ccc2c(c1)-c1c(c3ccccc3n1CCN1CCOCC1)CC2 | PC-3 | inactive
COc1cccc(/C=C2\S/C(=N/Nc3nc(-c4ccc([N+](=O)[O-])cc4)cs3)NC2=O)c1O | PC-3 | inactive
COC1(OC)CCCCCCCCC(OC)(OC)CCCCCCCC1 | PC-3 | inactive
COc1cc(OC)cc(OCc2nc3cc(C(F)(F)F)ccc3nc2-c2ccccc2)c1 | PC-3 | inactive
C[C@]12CC[C@H]3[C@@H](CC=C4C[C@@H](O)CC[C@@]43C)[C@@H]1C/C(=C\c1ccncc1)[C@@H]2O | PC-3 | inactive
COC(=O)[C@H]1CO[C@@H](C(C)(C)C)N1C(=O)N1C=CC(=O)C[C@@H]1C | PC-3 | inactive
CC(=O)Oc1ccc2cc(Oc3ccc(Cl)cc3)c(=O)oc2c1 | PC-3 | inactive
CC1(c2nc3cc(Cl)c(Cl)cc3[nH]2)CCC(C(=O)O)C(C)(C)O1 (centres undefined) | PC-3 | inactive
C/C(=C/CC[C@](C)(OC1OC(CO)C(O)C(O)C1O)[C@H]1CC[C@]2(C)[C@@H]1CC[C@@H]1[C@@]3(C)CC[C@H](O)C(C)(C)[C@@H]3C[C@H](O)[C@]12CO)CO (some centres undefined) | PC-3 | inactive
Nc1nc2[nH]cnc2c(=S)[nH]1 | PC-3 | inactive
CC(C)(C)c1cc(/C=C(\C#N)C2=NCCO2)cc(C(C)(C)C)c1O | PC-3 | inactive
Cc1cccnc1N/C=C1\C(=O)NC(=O)N(C)C1=O | PC-3 | inactive
COc1cc(/C=C2\N=C(c3ccccc3)N(c3nc4cc(C)c(C)cc4s3)C2=O)ccc1O | PC-3 | inactive
Cc1ccc(Nc2nc3ccccc3c(=O)n2N)cc1 | PC-3 | inactive
CC(=O)c1c(-c2ccco2)c(C#N)c(=S)n(C2OC(CO)C(O)C(O)C2O)c1-c1ccccc1 (centres undefined) | PC-3 | inactive
C=C(C)CNC(=S)N(N)c1ccc2ccccc2c1 | PC-3 | inactive
CN(C)CCOC1(CC2CCCCC2)CCC(C(C)(C)C)CC1 (centres undefined) | PC-3 | inactive
COc1cc(/C=C/C(=O)Oc2ccccc2)ccc1C(=O)O/C=C/c1ccccc1 | PC-3 | inactive
COC1CC(N)C(O)C(C)O1 (centres undefined) | PC-3 | inactive
CC(=O)Oc1ccc2c(c1)Oc1cc(C(C)=O)ccc1C21OC(=O)c2ccccc21 (centres undefined) | PC-3 | inactive
CCCCCC(O)C1C(=O)OC(C)C(O)/C=C/C=C/C=C/C=C/C=C(\C)C(O)C(O)C(O)CC(O)CC(O)CC(O)CC(O)CC1O (centres undefined) | PC-3 | inactive
O=C(O)C1CCCCC1C(=O)Nc1nc2ccccc2[nH]1 (centres undefined) | PC-3 | inactive

Ref: ChEMBL document CHEMBL1201862
